System Tested: UniProt Q8IB73
Procedure Details: IC50 for competition of protein binding to Kinobeads
Conditions: assay detail: Kinobeads competition in P. falciparum blood-stage lysate
Assay Readout: IC50

Summary: O=c1[nH]c2ccc(Cl)cc2c(NC2CN3CCC2CC3)c1-c1nc2ccccc2[nH]1 (stereo unspecified) , UniProt Q8IB73, IC50 = > 20 µM

----------
System Tested: UniProt Q8I5D4
Procedure Details: apparent dissociation constant (Kd app) from Kinobeads competition
Conditions: assay detail: Kinobeads competition in P. falciparum blood-stage lysate
Assay Readout: Kd

Known value: UniProt Q8I5D4 Kd of the compound O=c1[nH]c2ccc(Cl)cc2c(NC2CN3CCC2CC3)c1-c1nc2ccccc2[nH]1 (stereo unspecified) [CHIR-124] equals 5.65 µM
